Data credit: patent US10980889B1

- System: P-4E-BP1 (T37/46)
- experimental details: Cell based AlphaLISA assay, inhibition of P-4E-BP1 (T37/46) in MDA-MB-468 cells (mTORC1 substrate)
- measurement parameters: Homo sapiens, 4 h, AlphaLisa, two to four hours at 37° C., read-out: pIC50 for Inhibition of mTORC1 and mTORC2 Substrate Phosphorylation P-4E-BP1-(T37/46) (converted)
readout kind: IC50

Example entries and their recorded answers appear below.
compound structure	IC50
CO[C@H]1C[C@@H]2CC[C@@H](C)[C@@](O)(O2)C(=O)C(=O)N2CCCC[C@H]2C(=O)O[C@H]([C@H](C)C[C@@H]2CC[C@@H](OC(=S)NCc3cnc(N4CCN(C(=O)CCOCCN5CCN(c6ncc(C(=O)N7CCc8cc(Cn9nc(-c%10ccc%11oc(N)nc%11c%10)c%10c(N)ncnc%109)ccc8C7)cn6)CC5)CC4)nc3)[C@H](OC)C2)CC(=O)[C@H](C)/C=C(\C)[C@@H](O)[C@@H](OC)C(=O)[C@H](C)C[C@H](C)/C=C/C=C/C=C/1C	< 3.16 nM
CO[C@H]1C[C@@H]2CC[C@@H](C)[C@@](O)(O2)C(=O)C(=O)N2CCCC[C@H]2C(=O)O[C@H]([C@H](C)C[C@@H]2CC[C@@H](OC(=O)NCc3cnc(N4CCN(C(=O)CCOCCN5CCN(c6ncc(C(=O)N7CCc8cc(Cn9nc(-c%10ccc%11oc(N)nc%11c%10)c%10c(N)ncnc%109)ccc8C7)cn6)CC5)CC4)nc3)[C@H](OC)C2)CC(=O)[C@H](C)/C=C(\C)[C@@H](O)[C@@H](OC)C(=O)[C@H](C)C[C@H](C)/C=C/C=C/C=C/1C	> 1000 nM

Moving on to another compound below.
Data point: `CO[C@H]1C[C@@H]2CC[C@@H](C)[C@@](O)(O2)C(=O)C(=O)N2CCCC[C@H]2C(=O)O[C@H]([C@H](C)C[C@@H]2CC[C@@H](OC(=O)NCCOCCOCCOCCOCCOCCOCCOCCOCCC(=O)NCc3ccc(Cn4nc(-c5ccc6oc(N)nc6c5)c5c(N)ncnc54)cc3)[C@H](OC)C2)CC(=O)[C@H](C)/C=C(\C)[C@@H](O)[C@@H](OC)C(=O)[C@H](C)C[C@H](C)/C=C/C=C/C=C/1C` ; IC50 = < 3.16 nM

###

- System: P-Akt (S473)
- experimental details: Cell based AlphaLISA assay, inhibition of P-Akt (S473) in MDA-MB-468 cells (mTORC2 substrate)
- measurement parameters: Homo sapiens, 4 h, AlphaLisa, two to four hours at 37° C., read-out: pIC50 for Inhibition of mTORC1 and mTORC2 Substrate Phosphorylation p-AKT1/2/3-(S473) (converted)
Entries and their IC50

compound structure	result
CO[C@H]1C[C@@H]2CC[C@@H](C)[C@@](O)(O2)C(=O)C(=O)N2CCCC[C@H]2C(=O)O[C@H]([C@H](C)C[C@@H]2CC[C@@H](OC(=O)NCCOCCOCCOCCOCCOCCOCCOCCOCCC(=O)NCCS(=O)(=O)c3ccc(C(=O)N4CCOc5ccc(-c6ccc(N)nc6)cc5C4)c(C)c3)[C@H](OC)C2)CC(=O)[C@H](C)/C=C(\C)[C@@H](O)[C@@H](OC)C(=O)[C@H](C)C[C@H](C)/C=C/C=C/C=C/1C	3.16 to 31.6 nM

Moving on to another compound below.
The compound `CO[C@H]1C[C@@H]2CC[C@@H](C)[C@@](O)(O2)C(=O)C(=O)N2CCCC[C@H]2C(=O)O[C@H]([C@H](C)C[C@@H]2CC[C@@H](OC(=O)NCc3cnc(N4CCN(C(=O)CCOCCN5CCN(C(=O)CCC(=O)N6CCc7cc(Cn8nc(-c9ccc%10oc(N)nc%10c9)c9c(N)ncnc98)ccc7C6)CC5)CC4)nc3)[C@H](OC)C2)C[C@@H](OC)[C@H](C)/C=C(\C)[C@@H](O)[C@@H](OC)C(=O)[C@H](C)C[C@H](C)/C=C/C=C/C=C/1C` , tested on P-Akt (S473), showed IC50 of 3.16 to 31.6 nM

###

- Test system: P-4E-BP1 (T37/46)
- experimental details: Cell based AlphaLISA assay, inhibition of P-4E-BP1 (T37/46) in MDA-MB-468 cells (mTORC1 substrate)
- measurement parameters: Homo sapiens, 4 h, AlphaLisa, two to four hours at 37° C., read-out: pIC50 for Inhibition of mTORC1 and mTORC2 Substrate Phosphorylation P-4E-BP1-(T37/46) (converted)
readout kind: IC50

The recorded IC50 for entry CO[C@H]1C[C@@H]2CC[C@@H](C)[C@@](O)(O2)C(=O)C(=O)N2CCCC[C@H]2C(=O)O[C@H]([C@H](C)C[C@@H]2CC[C@@H](OC(=O)NCc3cnc(N4CCN(C(=O)CCOCCN5CCN(c6ncc(C(=O)NCCCCn7nc(-c8ccc9oc(N)nc9c8)c8c(N)ncnc87)cn6)CC5)CC4)nc3)[C@H](OC)C2)CC(=O)[C@H](C)/C=C(\C)[C@@H](O)[C@@H](OC)C(=O)[C@H](C)C[C@H](C)/C=C/C=C/C=C/1C [Example 112] equals > 1 µM

Value of measured IC50 for the entry CO[C@H]1C[C@@H]2CC[C@@H](C)[C@@](O)(O2)C(=O)C(=O)N2CCCC[C@H]2C(=O)O[C@H]([C@H](C)C[C@@H]2CC[C@@H](OC(=O)NCc3cnc(N4CCN(C(=O)CCOCCN5CCN(c6ncc(C(=O)NCCS(=O)(=O)c7ccc(C(=O)N8CCOc9ccc(-c%10ccc(N)nc%10)cc9C8)c(C)c7)cn6)CC5)CC4)nc3)[C@H](OC)C2)CC(=O)[C@H](C)/C=C(\C)[C@@H](O)[C@@H](OC)C(=O)[C@H](C)C[C@H](C)/C=C/C=C/C=C/1C [Example 124] : < 0.00316 µM

###

- Tested on: P-4E-BP1 (T37/46)
- experimental details: Cell based AlphaLISA assay, inhibition of P-4E-BP1 (T37/46) in MDA-MB-468 cells (mTORC1 substrate)
- measurement parameters: Homo sapiens, 4 h, AlphaLisa, two to four hours at 37° C., read-out: pIC50 for Inhibition of mTORC1 and mTORC2 Substrate Phosphorylation P-4E-BP1-(T37/46) (converted)
readout kind: IC50

compound	readout kind	result
CO[C@H]1C[C@@H]2CC[C@@H](C)[C@@](O)(O2)C(=O)C(=O)N2CCCC[C@H]2C(=O)O[C@H]([C@H](C)C[C@@H]2CC[C@@H](OC(=O)NCc3cnc(N4CCN(c5ncc(C(=O)NCCOCCOCCOCCOCCC(=O)N6CCc7cc(Cn8nc(-c9cnc%10[nH]ccc%10c9)c9c(N)ncnc98)ccc7C6)cn5)CC4CO)nc3)[C@H](OC)C2)CC(=O)[C@H](C)/C=C(\C)[C@@H](O)[C@@H](OC)C(=O)[C@H](C)C[C@H](C)/C=C/C=C/C=C/1C (some centres unmarked) [Example 86]	IC50	< 3.16 nM
CO[C@H]1C[C@@H]2CC[C@@H](C)[C@@](O)(O2)C(=O)C(=O)N2CCCC[C@H]2C(=O)O[C@H]([C@H](C)C[C@@H]2CC[C@@H](OC(=O)NCCOCCOCCOCCOCCOCCOCCOCCOCCC(=O)N3CCc4cc(Cn5nc(-c6ccc7oc(N)nc7c6)c6c(N)ncnc65)ccc4C3)[C@H](OC)C2)C[C@H](N=[N+]=[N-])[C@H](C)/C=C(\C)[C@@H](O)[C@@H](OC)C(=O)[C@H](C)C[C@H](C)/C=C/C=C/C=C/1C [Example 30]	IC50	< 3.16 nM
CO[C@H]1C[C@@H]2CC[C@@H](C)[C@@](O)(O2)C(=O)C(=O)N2CCCC[C@H]2C(=O)O[C@H]([C@H](C)C[C@@H]2CC[C@@H](OC(=O)NCc3cnc(N4CCN(c5ncc(C(=O)N6CCN(c7ncc(C(=O)N8CCc9cc(Cn%10nc(-c%11cnc%12[nH]ccc%12c%11)c%11c(N)ncnc%11%10)ccc9C8)cn7)CC6)cn5)CC4)nc3)[C@H](OC)C2)CC(=O)[C@H](C)/C=C(\C)[C@@H](O)[C@@H](OC)C(=O)[C@H](C)C[C@H](C)/C=C/C=C/C=C/1C [Example 140]	IC50	31.6 to 1000 nM

# IC50 (compound: CO[C@H]1C[C@@H]2CC[C@@H](C)[C@@](O)(O2)C(=O)C(=O)N2CCCC[C@H]2C(=O)O[C@H]([C@H](C)C[C@@H]2CC[C@@H](OC(=O)NCCOCCOCCOCCOCCOCCOCCOCCOCCC(=O)NCc3ccc(Cn4nc(-c5ccc6oc(N)nc6c5)c5c(N)ncnc54)cc3)[C@H](OC)C2)C[C@@H](OC)[C@H](C)/C=C(\C)[C@@H](O)[C@@H](OC)C(=O)[C@H](C)C[C@H](C)/C=C/C=C/C=C/1C [Example 37] ) is < 3.16 nM

Documented IC50 of CO[C@H]1C[C@@H]2CC[C@@H](C)[C@@](O)(O2)C(=O)C(=O)N2CCCC[C@H]2C(=O)O[C@H]([C@H](C)C[C@@H]2CC[C@@H](OC(=O)NCc3cnc(N4CCN(C(=O)CCOCCN5CCN(c6ncc(C(=O)N7CCc8cc(Cn9nc(-c%10cnc%11[nH]ccc%11c%10)c%10c(N)ncnc%109)ccc8C7)cn6)CC5)CC4)nc3)[C@H](OC)C2)CC(=O)[C@H](C)/C=C(\C)[C@@H](O)[C@@H](OC)C(=O)[C@H](C)C[C@H](C)/C=C/C=C/C=C/1C [Example 110] : > 1000 nM
